Target entity: T1, human APRIL protein (human, UniProt O75888 105-250, limits assumed)
T1 construct: Bought protein; also called recombinant APRIL protein
T1 sequence (looked up): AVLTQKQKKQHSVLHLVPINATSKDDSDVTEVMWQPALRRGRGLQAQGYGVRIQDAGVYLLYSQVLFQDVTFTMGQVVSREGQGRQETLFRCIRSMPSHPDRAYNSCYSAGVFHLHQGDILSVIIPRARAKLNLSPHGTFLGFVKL
Measurement notes: ELISA, coated APRIL; antibody 0.0213 nM
Param threshold (0.06) applies to OD450 nm; output T when value >= threshold, F when value < threshold.

1. 97E7B3F2 (antibody, V domains shown) VH: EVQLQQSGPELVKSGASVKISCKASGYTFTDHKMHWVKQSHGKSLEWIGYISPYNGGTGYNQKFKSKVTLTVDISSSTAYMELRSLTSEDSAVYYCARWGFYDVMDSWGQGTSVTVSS VL: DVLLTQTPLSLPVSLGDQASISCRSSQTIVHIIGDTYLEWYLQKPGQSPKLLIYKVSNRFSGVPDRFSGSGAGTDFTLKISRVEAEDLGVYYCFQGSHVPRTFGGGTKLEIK :: F
2. 89A2G5E7 (antibody, V domains shown, Mouse hybridoma antibody purified on Protein G) VH: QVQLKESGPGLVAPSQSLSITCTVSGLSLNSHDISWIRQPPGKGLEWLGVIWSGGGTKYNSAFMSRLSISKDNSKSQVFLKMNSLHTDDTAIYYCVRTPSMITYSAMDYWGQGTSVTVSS VL: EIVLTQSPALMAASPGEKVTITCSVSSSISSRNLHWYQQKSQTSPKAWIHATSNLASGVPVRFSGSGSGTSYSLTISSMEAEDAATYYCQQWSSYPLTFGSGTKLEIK :: F
3. 67A2E1D10 (antibody, V domains shown, Mouse hybridoma antibody purified on Protein G) VH: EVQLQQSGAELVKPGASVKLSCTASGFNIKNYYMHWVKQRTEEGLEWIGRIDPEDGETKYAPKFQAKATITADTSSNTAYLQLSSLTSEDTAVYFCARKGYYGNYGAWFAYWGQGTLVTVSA VL: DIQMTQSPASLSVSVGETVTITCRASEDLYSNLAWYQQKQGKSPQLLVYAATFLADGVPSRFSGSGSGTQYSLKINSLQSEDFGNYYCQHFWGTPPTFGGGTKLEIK :: F
4. L1D12 (antibody, human IgG1, V domains shown, also called LID12) VH: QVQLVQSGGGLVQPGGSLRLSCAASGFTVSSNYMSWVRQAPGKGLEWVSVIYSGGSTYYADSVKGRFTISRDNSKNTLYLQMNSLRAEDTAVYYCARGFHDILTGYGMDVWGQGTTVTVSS VL: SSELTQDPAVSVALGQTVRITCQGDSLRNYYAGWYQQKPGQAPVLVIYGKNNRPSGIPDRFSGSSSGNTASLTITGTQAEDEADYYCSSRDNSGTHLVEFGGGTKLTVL :: T
5. 93C6F10D3 (antibody, V domains shown) VH: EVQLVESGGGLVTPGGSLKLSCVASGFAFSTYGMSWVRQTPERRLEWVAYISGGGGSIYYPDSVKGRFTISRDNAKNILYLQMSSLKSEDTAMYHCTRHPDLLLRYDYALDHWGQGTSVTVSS VL: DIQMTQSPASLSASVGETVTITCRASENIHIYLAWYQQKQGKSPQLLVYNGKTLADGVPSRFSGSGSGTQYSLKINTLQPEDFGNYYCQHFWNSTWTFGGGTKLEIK :: F

The measurements presented in this section are drawn from patent US20210347873A1.
